measurement.target: type 1 human 5α-reductase (HRED1) (Homo sapiens)
Sequence (P18405 whole entry): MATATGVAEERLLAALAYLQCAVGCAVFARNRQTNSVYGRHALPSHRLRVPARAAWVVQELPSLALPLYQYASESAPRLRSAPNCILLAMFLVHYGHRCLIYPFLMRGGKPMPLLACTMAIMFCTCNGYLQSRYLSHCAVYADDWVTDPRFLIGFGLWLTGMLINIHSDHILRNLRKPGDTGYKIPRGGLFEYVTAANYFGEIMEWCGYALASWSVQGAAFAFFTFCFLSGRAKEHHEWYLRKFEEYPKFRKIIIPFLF
experiment.notes: Cell free assay of 5α-reductase, microsomes of rat 1A cells expressing type 1 isoenzyme (HRED1);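 further: microsomes from rat 1A cells expressing human type 1 5α-reductase, conversion of radiolabeled testosterone to dihydrotestosterone quantified by thin layer chromatography with radioanalytic scanning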
Type: biochemical
Design: expressed in transfected cells; host or cells: rat 1A cells infected with pMV7 retrovirus; microsomes
test.conditions: 100 uM; cell free assay; Table 2
Classify: y when HRED1 % Inhibition @ 100 uM is strictly less than 20%; n when HRED1 % Inhibition @ 100 uM is not.

Hi there! Is HRED1 % Inhibition @ 100 uM for OC1c2ccccc2-c2ccccc2C1O (centres unmarked) below 20%, do you know?
n

Does the reported HRED1 % Inhibition @ 100 uM of the following molecule sit strictly below 20%? `COc1cc(CCNC(=O)C=Cc2ccc(O)c(O)c2)ccc1O`
n

I wonder whether `O=C(NCCc1cc(O)c(O)c(O)c1)c1cc(O)c(O)c(O)c1` has HRED1 % Inhibition @ 100 uM below 20%. Can you tell?
y

Quick check: does `O=c1ccc2cc(O)c(O)cc2o1` have HRED1 % Inhibition @ 100 uM under 20%?
y

Consider the molecule `COc1cc(C(=O)C=Cc2ccc(N(C)C)cc2)cc(OC)c1OC` . Is its HRED1 % Inhibition @ 100 uM strictly less than 20%?
n
